Target: T1, histidine-tagged human SORT1 (R&D Systems) (human, UniProt Q99523 78-755)
T1 construct: Bought recombinant protein; also called His-tagged human SORT1; not shown: histidine tag
T1 sequence: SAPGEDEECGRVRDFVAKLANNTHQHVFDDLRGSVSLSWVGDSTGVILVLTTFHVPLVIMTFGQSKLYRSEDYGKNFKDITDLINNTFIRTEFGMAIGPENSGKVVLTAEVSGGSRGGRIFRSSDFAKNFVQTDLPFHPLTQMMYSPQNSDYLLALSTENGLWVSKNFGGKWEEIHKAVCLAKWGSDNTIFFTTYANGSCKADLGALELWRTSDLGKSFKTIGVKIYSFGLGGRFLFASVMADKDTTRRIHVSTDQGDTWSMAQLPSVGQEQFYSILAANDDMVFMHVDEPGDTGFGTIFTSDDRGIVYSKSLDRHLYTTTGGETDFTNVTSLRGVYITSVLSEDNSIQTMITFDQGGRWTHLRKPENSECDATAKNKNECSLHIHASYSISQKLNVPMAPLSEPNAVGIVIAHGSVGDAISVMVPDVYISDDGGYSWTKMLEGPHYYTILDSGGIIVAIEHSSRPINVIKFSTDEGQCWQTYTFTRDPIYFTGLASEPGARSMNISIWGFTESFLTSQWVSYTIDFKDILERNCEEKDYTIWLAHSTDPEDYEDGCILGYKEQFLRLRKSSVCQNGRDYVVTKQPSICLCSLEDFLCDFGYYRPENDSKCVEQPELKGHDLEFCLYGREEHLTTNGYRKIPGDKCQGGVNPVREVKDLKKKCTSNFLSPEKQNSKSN
Assay: BLI (Octet RED96), antibody captured on anti-human IgG Fc sensor, 20 nM His-tagged human SORT1, 1:1 fit
measured-metric: kon (M⁻¹ s⁻¹)

binder | value
S-60-15.17 [N33L] (antibody, human IgG1, kappa, L234A L235A, V domains shown, huIgG1 LALAPS) VH: QVQLQESGPGLVKPSETLSLTCAVSGYSISSGYYWGWIRQPPGKGLEWIGTIYHSGSTYYNPSLKSRVTISVDTSKNQFSLKLSSVTAADTAVYYCARQGSIKQGYYGMDVWGQGTTVTVSS VL: DIVMTQSPLSLPVTPGEPASISCRSSQSLLRSLGYNYLDWYLQKPGQSPQLLIYLGSNRASGVPDRFSGSGSGTDFTLKISRAEAEDVGVYYCMQQQEAPLTFGGGTKVEIKR | 412000
S-60-15.8 [N33Q] (antibody, human IgG1, kappa, L234A L235A, V domains shown, huIgG1 LALAPS) VH: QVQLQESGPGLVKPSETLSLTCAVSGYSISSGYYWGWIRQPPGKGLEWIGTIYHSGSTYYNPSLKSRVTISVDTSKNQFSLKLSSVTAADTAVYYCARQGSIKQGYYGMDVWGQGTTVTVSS VL: DIVMTQSPLSLPVTPGEPASISCRSSQSLLRSQGYNYLDWYLQKPGQSPQLLIYLGSNRASGVPDRFSGSGSGTDFTLKISRAEAEDVGVYYCMQQQEAPLTFGGGTKVEIKR | 609000
S-60-15.9 [N33Y] (antibody, human IgG1, kappa, L234A L235A, V domains shown, huIgG1 LALAPS) VH: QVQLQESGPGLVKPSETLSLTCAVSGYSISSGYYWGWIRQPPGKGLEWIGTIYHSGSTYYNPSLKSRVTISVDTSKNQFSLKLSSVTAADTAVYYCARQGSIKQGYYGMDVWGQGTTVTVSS VL: DIVMTQSPLSLPVTPGEPASISCRSSQSLLRSYGYNYLDWYLQKPGQSPQLLIYLGSNRASGVPDRFSGSGSGTDFTLKISRAEAEDVGVYYCMQQQEAPLTFGGGTKVEIKR | 511000
